target: CFTR (Homo sapiens); construct: endogenous in cells; host or cells: T84 human colonic cells (ECACC); experiment: T84 assay (FLIPR membrane potential dye, forskolin/IBMX-stimulated CFTR channel activity); type: cell-based; details: oxadiazole-containing compounds (a series), average of at least 2 runs unless annotated n = 1, read-out: IC50
Sequence (P13569 whole entry): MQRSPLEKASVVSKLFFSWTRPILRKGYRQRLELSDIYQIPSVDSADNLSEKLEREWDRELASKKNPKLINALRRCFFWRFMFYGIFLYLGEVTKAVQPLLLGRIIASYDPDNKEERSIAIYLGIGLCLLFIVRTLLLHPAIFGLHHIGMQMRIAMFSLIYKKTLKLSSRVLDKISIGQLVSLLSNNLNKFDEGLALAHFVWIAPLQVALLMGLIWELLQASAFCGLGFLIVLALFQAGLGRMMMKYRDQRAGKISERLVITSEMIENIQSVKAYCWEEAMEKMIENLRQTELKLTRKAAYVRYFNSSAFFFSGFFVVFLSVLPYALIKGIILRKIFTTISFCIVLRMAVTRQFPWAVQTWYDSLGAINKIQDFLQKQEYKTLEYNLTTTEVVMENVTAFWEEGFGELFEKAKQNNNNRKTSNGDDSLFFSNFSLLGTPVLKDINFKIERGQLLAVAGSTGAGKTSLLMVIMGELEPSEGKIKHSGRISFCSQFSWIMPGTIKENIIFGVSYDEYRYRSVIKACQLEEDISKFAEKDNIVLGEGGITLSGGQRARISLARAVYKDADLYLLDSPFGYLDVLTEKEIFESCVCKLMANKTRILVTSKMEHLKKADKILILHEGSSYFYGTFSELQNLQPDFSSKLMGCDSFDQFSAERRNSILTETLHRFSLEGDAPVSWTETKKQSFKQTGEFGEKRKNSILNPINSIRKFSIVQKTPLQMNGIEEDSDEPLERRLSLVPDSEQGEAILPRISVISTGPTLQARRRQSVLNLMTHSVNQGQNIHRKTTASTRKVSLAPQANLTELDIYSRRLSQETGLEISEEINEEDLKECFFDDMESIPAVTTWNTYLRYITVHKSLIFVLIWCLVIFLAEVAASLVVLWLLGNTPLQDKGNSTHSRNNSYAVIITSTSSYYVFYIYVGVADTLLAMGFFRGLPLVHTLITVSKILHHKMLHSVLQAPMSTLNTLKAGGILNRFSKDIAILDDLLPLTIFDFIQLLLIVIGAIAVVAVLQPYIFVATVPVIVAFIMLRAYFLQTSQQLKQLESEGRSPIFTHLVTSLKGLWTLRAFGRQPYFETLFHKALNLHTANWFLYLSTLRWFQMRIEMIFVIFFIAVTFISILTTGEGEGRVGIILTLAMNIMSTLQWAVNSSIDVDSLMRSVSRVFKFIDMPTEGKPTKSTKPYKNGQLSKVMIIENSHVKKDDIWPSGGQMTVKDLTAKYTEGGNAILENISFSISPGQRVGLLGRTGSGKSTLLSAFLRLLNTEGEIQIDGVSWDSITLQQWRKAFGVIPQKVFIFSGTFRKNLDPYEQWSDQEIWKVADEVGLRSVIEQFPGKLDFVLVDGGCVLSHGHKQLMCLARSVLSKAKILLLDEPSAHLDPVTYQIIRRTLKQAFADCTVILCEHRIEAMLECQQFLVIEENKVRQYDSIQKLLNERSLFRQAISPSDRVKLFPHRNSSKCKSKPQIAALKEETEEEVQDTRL
Readout kind: IC50 (µM)

| Molecule | Readout kind | Reported |
| --- | --- | --- |
| CN(Cc1ccc(-c2ccc(C(F)(F)F)cn2)cc1)C(=O)c1nc(-c2cc(Cl)c(O)c(Cl)c2)no1 [174a] | IC50 | 8.07 |
| O=C(NCc1ccc(F)c(F)c1)c1noc(-c2cc(Cl)c(O)c(Cl)c2)n1 [80a] | IC50 | 8.14 |
| O=C(Nc1cccc(OC(F)(F)F)c1)c1nc(-c2cc(Br)c(O)c(Br)c2)no1 [24a] | IC50 | 13.1 |
| CC(C)(C)C(=O)CN(Cc1cccc(OC(F)(F)F)c1)C(=O)c1nc(-c2cc(Cl)c(O)c(Cl)c2)no1 [164a] | IC50 | 12.9 |
| O=C(NCc1cc(F)cc(F)c1)c1noc(-c2cc(Cl)c(O)c(Cl)c2)n1 [112a] | IC50 | 11.2 |
| O=C(c1nc(-c2cc(Br)c(O)c(Br)c2)no1)N(CCO)Cc1ccccc1 [122a] | IC50 | 19.8 |
| O=C(NCc1cc(F)cc(C(F)(F)F)c1)c1nc(-c2cc(Cl)c(O)c(Cl)c2)no1 [154a] | IC50 | 3.89 |
| CC(C)Oc1ccc(CNC(=O)c2nc(-c3cc(Cl)c(O)c(Cl)c3)no2)cc1 [127a] | IC50 | 9.95 |
| CN(Cc1ccccc1)C(=O)c1nc(-c2cc(Cl)c(O)c(Cl)c2)no1 [62a] | IC50 | 18.6 |
| C=CCN(Cc1cccc(OC(F)(F)F)c1)C(=O)c1nc(-c2cc(Cl)c(O)c(Cl)c2)no1 [169a] | IC50 | 2.95 |
| CN(C)c1ccc(Oc2ccc(CNC(=O)c3nc(-c4cc(Cl)c(O)c(Cl)c4)no3)cc2)cc1 [197a] | IC50 | 7.76 |
| CN(Cc1ccc(-c2cncnc2)cc1)C(=O)c1nc(-c2cc(Cl)c(O)c(Cl)c2)no1 [188a] | IC50 | 5.81 |
| O=C(c1nc(-c2cc(Br)c(O)c(Br)c2)no1)N(Cc1cccnc1)Cc1cccc(C(F)(F)F)c1 | IC50 | 1.03 |
| O=C(NCc1ccccc1C(F)(F)F)c1nc(-c2cc(Cl)c(O)c(Cl)c2)no1 [129a] | IC50 | 16.7 |
| O=C(NCc1ccc(Oc2cc(F)cc(Br)c2)cc1)c1nc(-c2cc(Cl)c(O)c(Cl)c2)no1 [201a] | IC50 | 17.9 |
| CCN(Cc1cccc(C(F)(F)F)c1)C(=O)c1nc(-c2cc(Br)c(O)c(Br)c2)no1 [60a] | IC50 | 12.6 |
| CN(Cc1cccc(-c2cncnc2)c1)C(=O)c1nc(-c2cc(Cl)c(O)c(Cl)c2)no1 [177a] | IC50 | 16.3 |

* * *

system: cholera toxin (CTX) induced net fluid secretion in intestinal loops; assay: animal or person; type: in vivo, mice (CD1 strain); settings: Mus musculus; 4 hours; read-out: closed loop % inhibition @ 100 μg
Threshold rule: inhibition in vivo at 100 µg/loop greater than or equal to 90% is t; below that, f.

| Compound | Tgt | Classification |
| --- | --- | --- |
| CN(Cc1ccc(C(F)(F)F)cc1)C(=O)c1cc(-c2cc(Br)c(O)c(Br)c2)on1 [2g] | cholera toxin (CTX) induced net fluid secretion in intestinal loops | t |
| O=C(NCc1cc(F)cc(F)c1)c1noc(-c2cc(Cl)c(O)c(Cl)c2)n1 [112a] | cholera toxin (CTX) induced net fluid secretion in intestinal loops | f |
| O=C(NCc1cccc(OC(F)(F)F)c1)c1noc(-c2cc(Br)c(O)c(Br)c2)n1 [65a] | cholera toxin (CTX) induced net fluid secretion in intestinal loops | t |
| O=C(NCc1cccc(OC(F)(F)F)c1)c1noc(-c2cc(Cl)c(O)c(Cl)c2O)n1 [120a] | cholera toxin (CTX) induced net fluid secretion in intestinal loops | f |
| O=C(NCc1ccc(Oc2ccccc2)cc1)c1nc(-c2cc(Br)c(O)c(Br)c2)no1 [13a] | cholera toxin (CTX) induced net fluid secretion in intestinal loops | t |
| CC(C)(C)C(=O)CN(Cc1cccc(C(F)(F)F)c1)C(=O)c1nc(-c2cc(Br)c(O)c(Br)c2)no1 [1a] | cholera toxin (CTX) induced net fluid secretion in intestinal loops | f |
